measuredTarget: FOXO1 FKH L183P (UniProt Q12778 151-265, L183P)
Sequence (Q12778 151-265 L183P): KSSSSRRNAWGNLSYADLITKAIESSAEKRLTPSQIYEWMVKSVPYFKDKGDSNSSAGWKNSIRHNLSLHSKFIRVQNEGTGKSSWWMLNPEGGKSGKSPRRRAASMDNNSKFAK
assaySummary: EMSA
readoutLabel: Kd (nM)
Give the number; nM is assumed, so skip it.

Look at this binder and give its reported Kd. dsIRE (dsDNA) DNA 1: TAAGCTAGTGGTTTGTTTTGCTTGCTAGCAAT DNA 2: ATTGCTAGCAAGCAAAACAAACCACTAGCTTA
460
